Biological target: Bromodomain-containing protein 4 (Homo sapiens, UniProt O60885)
Assay: Displacement of biotinylated tetra-acetylated histone H4 from human his-tagged BRD4 bromodomain1 europium chelate preincubated for 15 mins followed by addition of BD1-ligand/Allophycocyanin acceptor measured after 1 hr by TR-FRET assay
metric: IC50

In: Quickly give me recorded IC50 for COc1cc2c(cc1-c1c(C)noc1C)ncc1[nH]/c(=N\C#N)n([C@H](C)c3ccccn3)c12
Out: < 300 nM

----------
Target: Bromodomain-containing protein 4 (Homo sapiens, UniProt O60885)
Assay: Displacement of biotinylated tetra-acetylated histone H4 from human his-tagged BRD4 bromodomain1 (44 to 168 residues) (unknown origin) after 60 mins by Alphascreen assay
metric: IC50

In: Quickly give me recorded IC50 for COc1ccc(OC(=O)N2C[C@H](C)N(C(C)=O)c3ccc(-c4cnn(C5COC5)c4)cc32)cc1
Out: < 100 nM
